Sourced from the supplement of paper PMC13380429

# System: HepG2
# Assay summary: cell viability relative to DMSO; higher = less toxic
# Assay context: 72 h; 10 nM
Property: cell viability (%)
Return type: number; implicit unit %.

* COCCN1CCN(Cc2ccc(-c3n[nH]c4c3C(=O)c3c(NC(=O)NN5CCOCC5)cccc3-4)cc2)CC1 | 99.8
* CC(Cc1ccccc1)NCCC(c1ccccc1)c1ccccc1 (centres undefined) | 110
* CCCOc1ccc(Br)cc1-c1cc(-c2ccc(Cl)cc2)[nH]c1-c1ccncc1 | 97.7
* CCOC(=O)OC(C)OC(=O)[C@@H]1N2C(=O)[C@@H](NC(=O)[C@H](N)c3ccccc3)[C@H]2SC1(C)C (some centres undefined) | 114
* CCOC(=O)CNC(=O)[C@@H]1CCCN1C(=O)Cc1ccccc1 | 97.2

Task: Please provide the recorded cell viability for `Cc1cc(C(C)(C)C)cc(C)c1CC1=NCCN1` , tested on HepG2.
Output: 93.4

Task: Can you check `CNC[C@H](O)[C@@H](O)[C@H](O)[C@H](O)CO` next?
Output: 93.5

Task: Try this molecule next: CCCCCCCCCCCCCCCCCC(=O)OCC(O)CO (centres undefined)
Output: 103

Task: Then this molecule: `C=C1CC[C@H](O)C/C1=C/C=C1\CCC[C@]2(C)[C@@H]([C@H](C)CCCC(C)(C)O)CC[C@@H]12`
Output: 103

----------
# Test system: Vero E6
# Assay summary: cell viability relative to DMSO; higher = less toxic
# Assay context: 72 h; 100 nM
This listing pairs molecules with measured cell viability.
Note: a bare number is incomplete; add the unit.

Here's what some known entries look like.
• Nc1nc2c(ncn2[C@@H]2O[C@H](CO)[C@@H](O)[C@H]2O)c(=O)[nH]1 = 92.4%
• COc1cc2ncnc(Nc3cccc(Cl)c3F)c2cc1OC(=O)N1CCN(C)C[C@H]1C = 81.8%
• CC1=NN(c2ccc(C)c(C)c2)C(=O)/C1=N\Nc1cccc(-c2cccc(C(=O)O)c2)c1O = 91.9%
• NS(=O)(=O)c1cc2c(cc1Cl)N=C(CSCc1ccccc1)NS2(=O)=O [benzthiazide] = 98.4%

# evaluate next
Task: Form field: reported cell viability of `NCCCCCc1c[nH]cn1`
Output: 99.9%

----------
# Tested on: HepG2
# Assay summary: cell viability relative to DMSO; higher = less toxic
# Assay context: 72 h; 10 nM
Property: cell viability (%)
Numeric only. Scale: %

Worked examples follow.
- COc1cc2ncnc(Nc3cccc(Cl)c3F)c2cc1OC(=O)N1CCN(C)C[C@H]1C: 86.6
- N=C(N)Nc1ccc2[nH]c3c(c2c1)C[C@@]1(O)[C@H]2Cc4ccc(O)c5c4[C@@]1(CCN2CC1CC1)[C@H]3O5: 122

Okay, next one:
Task: I would be grateful if you could share the reported cell viability for `CC1=C(CC(=O)O)c2cc(F)ccc2/C1=C\c1ccc(S(C)(=O)=O)cc1` .
Output: 95.3

----------
# System: HepG2
# Assay summary: cell viability relative to DMSO; higher = less toxic
# Assay context: 72 h; 1000 nM
Property: cell viability (%)
API: value field is a number in %; no unit string.

• COc1cc2ncn(-c3cc(OCc4ccccc4C(F)(F)F)c(C(N)=O)s3)c2cc1OC = 50

Task: Look at this molecule and give its reported cell viability. NCC(CC(=O)O)c1ccc(Cl)cc1 (centres undefined)
Output: 102

Task: What do you have for `O=c1ccc2ccc(O)c(O)c2o1` ?
Output: 87.5

Task: Query CC(=O)O[C@]1(C(C)=O)CC[C@H]2[C@@H]3C=CC4=CC(=O)CC[C@]4(C)[C@H]3CC[C@@]21C [6,7-dehydro-17-acetoxy-progesterone] next
Output: 105

----------
# Tested on: U2OS
# Assay summary: drug sensitivity score (DSS) for viability; higher = more toxic; extreme values may be limits of the assay
# Assay context: 72 h
Property: drug sensitivity score
No unit in the answer, please; the number alone is enough.

* OC[C@H]1O[C@@H](Oc2cc(O)cc(/C=C/c3ccc(O)cc3)c2)[C@H](O)[C@@H](O)[C@@H]1O | 0

Task: drug sensitivity score lookup needed for `Oc1cc(O)c(Cl)cn1` , thanks.
Output: 0

Task: Try the compound `C[C@@H](N)c1ccc(C(=O)Nc2ccnc3[nH]ccc23)cc1`
Output: 1.2

Task: How about `COc1cc(C(=O)c2c(C)oc3c(O)c(OC)ccc23)cc(OC)c1OC` ?
Output: 31.5

Task: Now try O=C(NC1CCN(CCCCC2(C(=O)NCC(F)(F)F)c3ccccc3-c3ccccc32)CC1)c1ccccc1-c1ccc(C(F)(F)F)cc1 [lomitapide] .
Output: 5.1

Task: Another compound: C#C[C@]1(O)CC[C@H]2[C@@H]3CCC4=CC(=NO)CC[C@@H]4[C@H]3CC[C@@]21CC (mixture of isomers)
Output: 0

Task: Consider next the compound `CC(C)=CCC/C(C)=C/CC/C(C)=C/CC[C@]1(C)CCc2cc(O)cc(C)c2O1` in the same way.
Output: 0

Task: For `Cc1ccc(CC2(O)CCN(CCOc3ccc(O)cc3)CC2)cc1` then?
Output: 0

----------
# System: HepG2
# Assay summary: cell viability relative to DMSO; higher = less toxic
# Assay context: 72 h; 1000 nM
Property: cell viability
Lab note: write values as number then unit, every time.

Sample answers from the record:
- N=C(N)NC(=O)c1cnccn1: 99.1%
- CCC(Cc1c(I)cc(I)c(N)c1I)C(=O)O (stereo unspecified): 110%

Task: Quick one: cell viability for `Oc1cc(O)c(Cl)cn1` ?
Output: 96.2%

Task: And then `CCOC(=O)c1ncn2c1CN(C)C(=O)c1cc(N=[N+]=[N-])ccc1-2` , what is it?
Output: 99.1%

Task: # repeat for O=C(NCCN1CCOCC1)c1ccc(Cl)cc1 [moclobemide]
Output: 98.3%

Task: Further, for `CN(C)CCCSc1ccccc1NC(=O)/C=C/c1ccccc1` ?
Output: 102%

----------
Reported cell viability values follow for various molecules
# Tested on: Vero E6
# Assay summary: cell viability relative to DMSO; higher = less toxic
# Assay context: 72 h; 100 nM
Output spec: scalar in %, unitless text.

The cases that follow already have their cell viability on record.
• CN1CCN(c2nc(C3=C(c4c[nH]c5ccccc45)C(=O)NC3=O)c3ccccc3n2)CC1 = 100
• C=CCN1CC[C@]23c4c5ccc(O)c4O[C@H]2[C@@H](OCCOCCOCCOCCOCCOCCOCCOC)CC[C@@]3(O)[C@H]1C5 = 103
• C[C@H](NC(=O)[C@@H](Cc1c[nH]c2ccccc12)NC(=O)[C@@H](N)Cc1c[nH]cn1)C(=O)N[C@@H](Cc1c[nH]c2ccccc12)C(=O)N[C@H](Cc1ccccc1)C(=O)N[C@@H](CCCCN)C(N)=O = 99.1
• O=C(NCc1ccccc1)c1csc(Nc2ccncn2)n1 = 99.1
• CC(=O)OCC(=O)[C@H]1CC[C@H]2[C@@H]3CCC4=CC(=O)CC[C@]4(C)[C@H]3CC[C@]12C [deoxycorticosterone-acetate] = 96.2

Task: I am curious: what cell viability value has been reported for `CCOC(=O)C1=C[C@]2(CC)CCCN3CCc4c(n1c1ccccc41)[C@@H]32` ?
Output: 95.9

Task: Queued: `CCCCOc1ccc(C(=O)CCN2CCCCC2)cc1`
Output: 99

----------
# System: Vero E6
# Assay summary: cell viability relative to DMSO; higher = less toxic
# Assay context: 72 h; 10 nM
Measured cell viability accompanies every entry in the list below.
Write down the numeric answer in % and omit the unit.

• Nc1nc2c(ncn2[C@@H]2O[C@H](CO)[C@@H](O)[C@H]2O)c(=O)[nH]1 = 93.5

Task: Field request: cell viability | item: `C[C@@H](O)[C@H]1C(=O)N2C(C(=O)O)=C(S[C@@H]3CN[C@H](CNS(N)(=O)=O)C3)[C@H](C)[C@H]12`
Output: 104

Task: Query `COC[C@@H](c1ccc(C(F)(F)F)cc1)N1CCN(C2(C)CCN(C(=O)c3c(C)ncnc3C)CC2)C[C@@H]1C` next
Output: 97

Task: Queued: `CNCc1ccc(-c2[nH]c3cc(F)cc4c3c2CCNC4=O)cc1`
Output: 99.9

Task: Proceed to CCOC(=O)OC(C)OC(=O)[C@@H]1N2C(=O)[C@@H](NC(=O)[C@H](N)c3ccccc3)[C@H]2SC1(C)C (stereo partly drawn)
Output: 96.7

Task: Okay, and CCN[C@H]1CN(CCCOC)S(=O)(=O)c2sc(S(N)(=O)=O)cc21 [brinzolamide] ?
Output: 99.7

Task: Same for `O=S(=O)(c1ccccc1)N(CC(F)(F)F)c1ccc(C(O)(C(F)(F)F)C(F)(F)F)cc1`
Output: 102

Task: Would you kindly repeat that for `CC(C)(C)[C@H]1CC[C@H](CC2=C(O)C(=O)c3ccccc3C2=O)CC1` ?
Output: 101

Task: Next compound: `CC(=O)Nc1nc2c(Oc3cc(-c4ccc(C(F)(F)F)cc4)ncn3)cccc2s1`
Output: 102
